Test system: S. aureus Mu3
method-notes: Secondary screening of compound 13 analogues in combination with gentamicin (growth by OD 595 nm)
protocol-conditions: Staphylococcus aureus, MU3, read-out: 50 μM + 200 μg/ml Gentamicin Growth inhibition Percentage
quantity-kind: inhibition at 50 µM (%)
Supply the numeric figure in %, leaving out any unit text.

Look up and state reported inhibition at 50 µM for CC(C(=O)O)N1C(=O)/C(=C/c2ccc(Cl)cc2)SC1=S (stereo not shown)
62

Look up and state reported inhibition at 50 µM for COc1cc(/C=C2\SC(=S)N(CC(=O)O)C2=O)ccc1OCc1ccc(Cl)cc1
89

Look up and state reported inhibition at 50 µM for CCOc1cc(/C=C2\SC(=S)N(CC(=O)O)C2=O)ccc1OCc1ccc(Cl)c(Cl)c1
43

Look up and state reported inhibition at 50 µM for COc1ccc(/C=C2\SC(=S)N(CC(=O)O)C2=O)cc1OCc1ccc(Cl)cc1
89
